B1: RAD51 (parent)
chain: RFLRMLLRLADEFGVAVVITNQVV

Variants of: B1
assay-text: protein stability index of a GFP-peptide fusion (GPS, HEK-293T) (PSI 1-6); higher = more stable;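 also: lentivirally expressed fusions sorted by FACS into six bins by GFP to DsRed ratio, PSI derived from sequencing read proportions per bin multiplied by bin number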
measurement-parameters: c terminus: a fixed tail appended
Okay, here is how we bin by protein stability index: class 0 (below 2), class 1 (2 to below 3), class 2 (3 or more)

mutation_name=R1E class_assignment="class 1"
mutation_name=L7P class_assignment="class 1"
mutation_name=Q22T class_assignment="class 0"
mutation_name=V18L class_assignment="class 1"
mutation_name=R8W class_assignment="class 0"
mutation_name=N21I class_assignment="class 0"
mutation_name=V24Y class_assignment="class 0"
mutation_name=M5K class_assignment="class 2"
mutation_name=V17F class_assignment="class 1"
mutation_name=G14Y class_assignment="class 2"
mutation_name=M5T class_assignment="class 2"
mutation_name=L3M class_assignment="class 1"
mutation_name=L6H class_assignment="class 0"
mutation_name=D11T class_assignment="class 1"
mutation_name=V15D class_assignment="class 0"
mutation_name=E12R class_assignment="class 2"
mutation_name=L6Y class_assignment="class 2"
mutation_name=L3H class_assignment="class 1"
mutation_name=T20Q class_assignment="class 1"
mutation_name=L6G class_assignment="class 1"
